Tested on: Escherichia coli
Experiment: Antibacterial activity against Escherichia coli assessed as inhibition of bacterial growth
Assay type: functional
Metric Name: MIC (µg/mL)
Answers are plain numbers, in µg/mL.

Provide each entry's MIC from the list below.
1. Oc1ccc([C@H]2COc3cc(O)ccc3C2)cc1
2. Oc1ccc([C@H]2COc3cc(O)c(O)cc3C2)cc1
3. Oc1ccc2c(c1)OC[C@H](c1ccc(O)c(O)c1)C2
4. Oc1ccc([C@H]2COc3cc(O)c(O)cc3C2)cc1O

Given back:
1. 256
2. 64
3. 512
4. 128
